Reference for the values: paper PMC12467033

Molecular target: α-amylase (Sus scrofa)
Sequence (P00690 16-511): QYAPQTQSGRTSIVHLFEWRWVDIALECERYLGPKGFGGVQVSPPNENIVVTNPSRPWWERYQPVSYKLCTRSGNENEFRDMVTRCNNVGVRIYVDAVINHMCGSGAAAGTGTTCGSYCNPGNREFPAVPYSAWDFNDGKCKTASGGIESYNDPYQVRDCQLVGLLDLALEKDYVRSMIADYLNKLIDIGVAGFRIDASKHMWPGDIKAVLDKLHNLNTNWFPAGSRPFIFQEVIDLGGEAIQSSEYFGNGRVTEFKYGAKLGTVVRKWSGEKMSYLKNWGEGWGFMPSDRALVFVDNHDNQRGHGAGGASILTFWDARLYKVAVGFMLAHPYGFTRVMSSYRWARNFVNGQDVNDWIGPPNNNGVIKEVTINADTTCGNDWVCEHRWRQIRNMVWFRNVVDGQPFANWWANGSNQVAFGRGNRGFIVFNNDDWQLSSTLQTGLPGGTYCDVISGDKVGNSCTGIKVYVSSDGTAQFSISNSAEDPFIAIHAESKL
Test: Fluorescence quenching, binding and thermodynamics with α-amylase
Conditions: T 310 K
MEASURED_ATTRIBUTE: Kq

Solved cases (3 shown):
COMPOUND	Kq
Oc1ccc(-c2c3nc(c(-c4ccc(O)cc4)c4ccc([nH]4)c(-c4ccc(O)cc4)c4nc(c(-c5ccc(O)cc5)c5ccc2[nH]5)C=C4)C=C3)cc1 [THPP]	7.64 ± 0.07 ×10^12 L/mol/s
Nc1ccc(-c2c3nc(c(-c4ccc(N)cc4)c4ccc([nH]4)c(-c4ccc(N)cc4)c4nc(c(-c5ccc(N)cc5)c5ccc2[nH]5)C=C4)C=C3)cc1 [TAPP]	3.07 ± 0.09 ×10^12 L/mol/s
O=C(O)c1ccc(-c2c3nc(c(-c4ccc(C(=O)O)cc4)c4ccc([nH]4)c(-c4ccc(C(=O)O)cc4)c4nc(c(-c5ccc(C(=O)O)cc5)c5ccc2[nH]5)C=C4)C=C3)cc1.[Ni+2] [Ni–TCPP]	7.11 ± 0.05 ×10^12 L/mol/s

Reported Kq ( O=C(O)c1ccc(-c2c3nc(c(-c4ccc(C(=O)O)cc4)c4ccc([nH]4)c(-c4ccc(C(=O)O)cc4)c4nc(c(-c5ccc(C(=O)O)cc5)c5ccc2[nH]5)C=C4)C=C3)cc1.[Cu+2] [Cu–TCPP] ) = 4.32 ± 0.02 ×10^12 L/mol/s

Reported Kq ( O=C(O)c1ccc(-c2c3nc(c(-c4ccc(C(=O)O)cc4)c4ccc([nH]4)c(-c4ccc(C(=O)O)cc4)c4nc(c(-c5ccc(C(=O)O)cc5)c5ccc2[nH]5)C=C4)C=C3)cc1 [TCPP] ) = 3.01 ± 0.07 ×10^12 L/mol/s
